study.target: human MC3R (Homo sapiens, UniProt P41968)
Construct: expressed in transfected cells; host or cells: HEK-293 cells stably expressing the GScAMP22F split-luciferase cAMP sensor (parent reporter line from Promega); MC3R clone generated in-house, G418 selection
Sequence (P41968 whole entry): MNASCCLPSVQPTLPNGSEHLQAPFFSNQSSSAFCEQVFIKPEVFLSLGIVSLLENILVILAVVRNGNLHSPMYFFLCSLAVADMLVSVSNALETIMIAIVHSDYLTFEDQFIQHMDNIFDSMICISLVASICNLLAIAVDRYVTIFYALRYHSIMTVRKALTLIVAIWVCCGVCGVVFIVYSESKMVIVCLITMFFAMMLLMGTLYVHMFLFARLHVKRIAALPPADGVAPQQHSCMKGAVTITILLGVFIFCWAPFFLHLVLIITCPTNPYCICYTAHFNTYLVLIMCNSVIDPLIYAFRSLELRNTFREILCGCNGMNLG
procedure.details: split-luciferase cAMP sensor assay, agonist mode (measurement window 1), hMC3R
Format: cell-based
condition.context: MC4R versus MC3R
Protocol: The stable cell lines were grown and maintained in selection media consisting of Dulbecco's modified Eagle media (DMEM) with 4.5 g/l D-glucose, and 4 mM L-glutamine (Thermo Fisher Scientific, Waltham, MA), supplemented with 10% fetal bovine serum, 100 units/ml penicillin, 100 μg/ml streptomycin, 2.5 μg/ml amphotericin B, 200 μg/ml hygromycin B (for positive selection of the GScAMP22f luciferase reporter), and Geneticin™ (G418) 700 μg/ml (for MC3R or MC4R selection). […]
Positions of bridges follow the written chain, without caps; N, C: chain ends. Non-standard residues stand in square brackets, D forms with d. Residues, ends and D or L forms follow the SMILES beside them. d(αMeF) = C[C@@](N)(Cc1ccccc1)C(=O)O; 2Pal = N[C@@H](Cc1ccccn1)C(=O)O; Cit = NC(=O)NCCC[C@H](N)C(=O)O; NMeA = CN[C@@H](C)C(=O)O; Nle = CCCC[C@H](N)C(=O)O; Aib = CC(C)(N)C(=O)O

>  <compound>
CC(=O)N[C@@H](CCCNC(=N)N)C(=O)N[C@H]1CSSC[C@@H](C(N)=O)NC(=O)[C@@H](Cc2c[nH]c3ccccc23)NC(=O)[C@H](CCCNC(N)=O)NC(=O)[C@@H](Cc2ccccc2)NC(=O)[C@H](CCCNC(=N)N)NC(=O)[C@@H](C)NC1=O [CTX-1281] (Ac-RC[dA]R[dF][Cit][dW]C-NH2; disulfide 2-8 (inferred))

>  <study.target>
human MC3R (Homo sapiens, UniProt P41968)

>  <MC4R selectivity vs MC3R>
0.29

$$$$
>  <compound>
CC(=O)N[C@H]1CSSC[C@@H](C(N)=O)NC(=O)[C@H](Cc2c[nH]c3ccccc23)NC(=O)[C@H](CCCNC(=N)N)NC(=O)[C@@H](Cc2ccccc2)NC(=O)[C@H](Cc2c[nH]cn2)NC(=O)[C@@H](C)NC1=O

>  <study.target>
human MC3R (Homo sapiens, UniProt P41968)

>  <MC4R selectivity vs MC3R>
8.87

$$$$
>  <compound>
CC(=O)N[C@H]1CSSC[C@@H](C(N)=O)NC(=O)[C@H](Cc2c[nH]c3ccccc23)NC(=O)[C@H](CCCNC(=N)N)NC(=O)[C@@H](Cc2ccccc2)NC(=O)[C@H](CCCNC(=N)N)NC(=O)CNC1=O [CTX-1629, cyclo(Cys-Gly-Arg-D-Phe-Arg-Trp-Cys)] (Ac-CGR[dF]RWC-NH2; disulfide 1-7)

>  <study.target>
human MC3R (Homo sapiens, UniProt P41968)

>  <MC4R selectivity vs MC3R>
19

$$$$
>  <compound>
CC(=O)N[C@@H](CCCNC(=N)N)C(=O)N[C@H]1CSSC[C@@H](C(N)=O)NC(=O)[C@H](Cc2ccccc2)NC(=O)[C@H](CCCNC(=N)N)NC(=O)[C@@H](Cc2ccccc2)NC(=O)[C@H](Cc2ccccn2)NC(=O)C(C)(C)NC1=O [CTX-1604] (Ac-RC[Aib][2Pal][dF]RFC-NH2; disulfide 2-8 (inferred))

>  <study.target>
human MC3R (Homo sapiens, UniProt P41968)

>  <MC4R selectivity vs MC3R>
0.11

$$$$
>  <compound>
CC(=O)N[C@@H](CCCNC(=N)N)C(=O)N[C@H]1CSSC[C@@H](C(N)=O)NC(=O)[C@H](Cc2c[nH]c3ccccc23)NC(=O)[C@H](CCCNC(=N)N)NC(=O)[C@@H](Cc2ccccc2)NC(=O)[C@H](CCCNC(=N)N)NC(=O)[C@H](C)NC1=O [CTX-1267, Arg-cyclo(Cys-Ala-Arg-D-Phe-Arg-Trp-Cys)] (Ac-RCAR[dF]RWC-NH2; disulfide 2-8)

>  <study.target>
human MC3R (Homo sapiens, UniProt P41968)

>  <MC4R selectivity vs MC3R>
4.07

$$$$
>  <compound>
CC(=O)N[C@@H](CCCNC(=N)N)C(=O)N[C@H]1CSSC[C@@H](C(N)=O)NC(=O)[C@H](Cc2c[nH]c3ccccc23)NC(=O)[C@H](CCCNC(=N)N)NC(=O)[C@@](C)(Cc2ccccc2)NC(=O)[C@H](CCCNC(=N)N)NC(=O)[C@@H](C)NC1=O [CTX-1278] (Ac-RC[dA]R[d(αMeF)]RWC-NH2; disulfide 2-8 (inferred))

>  <study.target>
human MC3R (Homo sapiens, UniProt P41968)

>  <MC4R selectivity vs MC3R>
12

$$$$
>  <compound>
CC(=O)N[C@@H](CCCNC(=N)N)C(=O)N[C@H]1CSSC[C@@H](C(N)=O)NC(=O)[C@@H](Cc2c[nH]c3ccccc23)NC(=O)[C@H](CCCNC(=N)N)NC(=O)[C@@H](Cc2ccccc2)NC(=O)[C@H](CCCNC(=N)N)NC(=O)[C@H](C)N(C)C1=O [CTX-1269] (Ac-RC[NMeA]R[dF]R[dW]C-NH2; disulfide 2-8 (inferred))

>  <study.target>
human MC3R (Homo sapiens, UniProt P41968)

>  <MC4R selectivity vs MC3R>
9.31

$$$$
>  <compound>
CC1(C)NC(=O)CSC[C@@H](C(N)=O)NC(=O)[C@H](Cc2c[nH]c3ccccc23)NC(=O)[C@H](CCCNC(=N)N)NC(=O)[C@@H](Cc2ccccc2)NC(=O)[C@H](CCCNC(=N)N)NC1=O [CTX-1648] ({CH2CO}-[Aib]R[dF]RWC-NH2; thioether N-6)

>  <study.target>
human MC3R (Homo sapiens, UniProt P41968)

>  <MC4R selectivity vs MC3R>
63

$$$$
>  <compound>
CC(=O)N[C@@H](CCCNC(=N)N)C(=O)N[C@H]1CSSC[C@@H](C(N)=O)NC(=O)[C@H](Cc2c[nH]c3ccccc23)NC(=O)[C@H](CCCNC(N)=O)NC(=O)[C@@H](Cc2ccccc2)NC(=O)[C@H](CCCNC(=N)N)NC(=O)C(C)(C)NC1=O [CTX-1270, Arg-cyclo(Cys-Aib-Arg-D-Phe-Cit-Trp-Cys)] (Ac-RC[Aib]R[dF][Cit]WC-NH2; disulfide 2-8)

>  <study.target>
human MC3R (Homo sapiens, UniProt P41968)

>  <MC4R selectivity vs MC3R>
1.88

$$$$
>  <compound>
CC(=O)N[C@H]1CSSC[C@@H](C(N)=O)NC(=O)[C@H](Cc2ccccc2)NC(=O)[C@H](CCCNC(=N)N)NC(=O)[C@@H](Cc2ccccc2)NC(=O)[C@H](CCCNC(=N)N)NC(=O)CNC1=O [CTX-1638, cyclo(Cys-Gly-Arg-D-Phe-Arg-Phe-Cys)] (Ac-CGR[dF]RFC-NH2; disulfide 1-7)

>  <study.target>
human MC3R (Homo sapiens, UniProt P41968)

>  <MC4R selectivity vs MC3R>
1.66

$$$$
>  <compound>
CCCC[C@H](NC(=O)[C@H](CCCNC(=N)N)NC(C)=O)C(=O)N[C@H]1CSSC[C@@H](C(N)=O)NC(=O)[C@H](Cc2ccccc2)NC(=O)[C@H](CCCNC(=N)N)NC(=O)[C@@H](Cc2ccccc2)NC(=O)[C@H](CCCNC(=N)N)NC1=O [CTX-1622, Arg-Nle-cyclo(Cys-Arg-D-Phe-Arg-Phe-Cys)] (Ac-R[Nle]CR[dF]RFC-NH2; disulfide 3-8 (inferred))

>  <study.target>
human MC3R (Homo sapiens, UniProt P41968)

>  <MC4R selectivity vs MC3R>
0.32

$$$$
